# protocol_description: Metabolic stability in human liver microsomes assessed as half life at 1 uM in the presence of NADPH measured for 60 mins by LC-MS/MS analysis
# Assay type: ADME, Microsome
readout_label: half-life at 1 µM (h)

compound="COc1cc2c(cc1OCC1CC1)CCN1CC(CC(C)C)C(O)CC21 (centres undefined)" readout_label="half-life at 1 µM" endpoint_unit=h measured_value=2.14
compound="COc1cc2c(cc1OC)C1CC(=O)C(CC(C)C)CN1CC2 (centres undefined)" readout_label="half-life at 1 µM" endpoint_unit=h measured_value=0.547
compound="COc1cc2c(cc1OC)[C@H]1C[C@@H](O)[C@H](CC(C)C)CN1CC2 [DIHYDROTETRABENAZINE]" readout_label="half-life at 1 µM" endpoint_unit=h measured_value=1.99
compound="CCCOc1cc2c(cc1OCC)C1CC(O)C(CC(C)C)CN1CC2 (centres undefined)" readout_label="half-life at 1 µM" endpoint_unit=h measured_value=0.923
